Provide the recorded shrunken log2 fold change for the entries that follow.
test system: Escherichia coli TOP10; assay: shrunken log2 fold change of peptide-encoding DNA abundance (4.5 h post-induction vs induction); higher = less antimicrobial activity (less host growth inhibition); details: time post-induction: 4.5 h; library: site-saturation at positions 5, 18, 19, 20
Answers are plain numbers.

In the examples that follow, each entry is paired with its recorded shrunken log2 fold change.
Chain Sequence	shrunken log2 fold change
RRIRSRPPRLPRPRPRPYKPPRP	-0.195
RRIRCRPPRLPRPRPRPRAGPRP	0.472
RRIRNRPPRLPRPRPRPWCIPRP	-0.573

Attention now turns to another entry.
### Prompt Form entry - test system: Escherichia coli TOP10; read-out: shrunken log2 fold change; sequence: RRIRCRPPRLPRPRPRPILWPRP
### Response 0.0346

###

system: Escherichia coli TOP10; assay: shrunken log2 fold change of peptide-encoding DNA abundance (4.5 h post-induction vs induction); higher = less antimicrobial activity (less host growth inhibition); conditions: time post-induction: 4.5 h; library: site-saturation at positions 5, 18, 19, 20
Threshold check on shrunken log2 fold change: at or above 0.03 gives MET, strictly below gives NOT MET.

Chain Sequence	Answer Label
RRIRARPPRLPRPRPRPNEHPRP	NOT MET
RRIRVRPPRLPRPRPRPGWNPRP	NOT MET
RRIRDRPPRLPRPRPRPVNMPRP	NOT MET
RRIRFRPPRLPRPRPRPASAPRP	MET

### Prompt Is reported shrunken log2 fold change greater than or equal to 0.03 here: RRIRNRPPRLPRPRPRPWDQPRP
### Response MET

### Prompt Is reported shrunken log2 fold change greater than or equal to 0.03 here: RRIRMRPPRLPRPRPRPDRTPRP
### Response MET

### Prompt Is reported shrunken log2 fold change greater than or equal to 0.03 here: RRIRERPPRLPRPRPRPDLEPRP
### Response NOT MET

### Prompt Is reported shrunken log2 fold change greater than or equal to 0.03 here: RRIRSRPPRLPRPRPRPKAQPRP
### Response MET

### Prompt Is reported shrunken log2 fold change greater than or equal to 0.03 here: RRIRLRPPRLPRPRPRPMWTPRP
### Response NOT MET

### Prompt Is reported shrunken log2 fold change greater than or equal to 0.03 here: RRIRFRPPRLPRPRPRPSKFPRP
### Response NOT MET

### Prompt Is reported shrunken log2 fold change greater than or equal to 0.03 here: RRIRNRPPRLPRPRPRPEGMPRP
### Response MET

### Prompt Is reported shrunken log2 fold change greater than or equal to 0.03 here: RRIRERPPRLPRPRPRPEDWPRP
### Response MET

### Prompt Is reported shrunken log2 fold change greater than or equal to 0.03 here: RRIRFRPPRLPRPRPRPTRHPRP
### Response MET

### Prompt Is reported shrunken log2 fold change greater than or equal to 0.03 here: RRIRARPPRLPRPRPRPMIKPRP
### Response MET

### Prompt Is reported shrunken log2 fold change greater than or equal to 0.03 here: RRIRVRPPRLPRPRPRPEKWPRP
### Response NOT MET

### Prompt Is reported shrunken log2 fold change greater than or equal to 0.03 here: RRIRCRPPRLPRPRPRPALPPRP
### Response MET

### Prompt Is reported shrunken log2 fold change greater than or equal to 0.03 here: RRIRSRPPRLPRPRPRPIHMPRP
### Response NOT MET

### Prompt Is reported shrunken log2 fold change greater than or equal to 0.03 here: RRIRRRPPRLPRPRPRPFDWPRP
### Response MET

### Prompt Is reported shrunken log2 fold change greater than or equal to 0.03 here: RRIRFRPPRLPRPRPRPHDDPRP
### Response NOT MET

### Prompt Is reported shrunken log2 fold change greater than or equal to 0.03 here: RRIRRRPPRLPRPRPRPAPTPRP
### Response MET

### Prompt Is reported shrunken log2 fold change greater than or equal to 0.03 here: RRIRKRPPRLPRPRPRPHVEPRP
### Response NOT MET

### Prompt Is reported shrunken log2 fold change greater than or equal to 0.03 here: RRIRWRPPRLPRPRPRPDCPPRP
### Response MET

### Prompt Is reported shrunken log2 fold change greater than or equal to 0.03 here: RRIRKRPPRLPRPRPRPQETPRP
### Response NOT MET

### Prompt Is reported shrunken log2 fold change greater than or equal to 0.03 here: RRIRKRPPRLPRPRPRPDKHPRP
### Response MET

### Prompt Is reported shrunken log2 fold change greater than or equal to 0.03 here: RRIRSRPPRLPRPRPRPWRCPRP
### Response MET

### Prompt Is reported shrunken log2 fold change greater than or equal to 0.03 here: RRIRVRPPRLPRPRPRPKCVPRP
### Response NOT MET

### Prompt Is reported shrunken log2 fold change greater than or equal to 0.03 here: RRIRLRPPRLPRPRPRPQEPPRP
### Response NOT MET

### Prompt Is reported shrunken log2 fold change greater than or equal to 0.03 here: RRIRLRPPRLPRPRPRPKQSPRP
### Response NOT MET

### Prompt Is reported shrunken log2 fold change greater than or equal to 0.03 here: RRIRSRPPRLPRPRPRPPHSPRP
### Response MET

###

tested on: Escherichia coli TOP10; assay: shrunken log2 fold change of peptide-encoding DNA abundance (4.5 h post-induction vs induction); higher = less antimicrobial activity (less host growth inhibition); conditions: time post-induction: 4.5 h; library: site-saturation at positions 5, 18, 19, 20
Provide the recorded shrunken log2 fold change for the entries that follow.
Numbers only.

Chain Sequence	shrunken log2 fold change
RRIRCRPPRLPRPRPRPVEPPRP	-0.0281
RRIRLRPPRLPRPRPRPDQGPRP	-0.034
RRIRSRPPRLPRPRPRPPLYPRP	-0.0605
RRIRCRPPRLPRPRPRPQAVPRP	-0.154
RRIRFRPPRLPRPRPRPAHWPRP	0.539
RRIRDRPPRLPRPRPRPMTLPRP	0.0841
RRIRCRPPRLPRPRPRPPPQPRP	1.34
RRIRLRPPRLPRPRPRPTATPRP	0.817
RRIRHRPPRLPRPRPRPVKHPRP	0.0596

Attention now turns to another entry.
### Prompt Quick one: shrunken log2 fold change of RRIRSRPPRLPRPRPRPIWSPRP ?
### Response 0.0119

###

test system: Escherichia coli TOP10; assay: shrunken log2 fold change of peptide-encoding DNA abundance (4.5 h post-induction vs induction); higher = less antimicrobial activity (less host growth inhibition); details: time post-induction: 4.5 h; library: site-saturation at positions 5, 18, 19, 20
Heads up, the class ranges for shrunken log2 fold change are low value = under -0.04, medium value = from -0.04 up to 0.1, high value = 0.1 and over

For orientation, consider the following solved cases.
Chain Sequence	Answer Label
RRIRWRPPRLPRPRPRPLEPPRP	high value
RRIRFRPPRLPRPRPRPTSYPRP	low value
RRIRGRPPRLPRPRPRPSIHPRP	high value

With those in mind, consider the next sequence.
### Prompt Consider RRIRRRPPRLPRPRPRPSHTPRP . To which shrunken log2 fold change class does it belong?
### Response high value

###

test system: Escherichia coli TOP10; assay: shrunken log2 fold change of peptide-encoding DNA abundance (4.5 h post-induction vs induction); higher = less antimicrobial activity (less host growth inhibition); details: time post-induction: 4.5 h; library: site-saturation at positions 5, 18, 19, 20;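 further: peptides expressed intracellularly from a pBAD plasmid library in pooled LB shake-flask culture, induced with 0.3% L-arabinose, DNA abundance read by NGS, three biological replicates, DESeq2 with apeglm shrinkage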
Provide the recorded shrunken log2 fold change for the entries that follow.
Answers are plain numbers.

Chain Sequence	shrunken log2 fold change
RRIRIRPPRLPRPRPRPTGTPRP	-0.109
RRIRQRPPRLPRPRPRPCDKPRP	0.244
RRIRDRPPRLPRPRPRPTHQPRP	0.0642
RRIRIRPPRLPRPRPRPTNGPRP	-0.166
RRIRVRPPRLPRPRPRPGRSPRP	0.649
RRIRPRPPRLPRPRPRPLTCPRP	-0.191
RRIRQRPPRLPRPRPRPHATPRP	-0.0615
RRIRQRPPRLPRPRPRPEIVPRP	0.143
RRIRGRPPRLPRPRPRPRENPRP	0.978
RRIRPRPPRLPRPRPRPIRVPRP	-0.262

Give me shrunken log2 fold change for each of these sequences, listed below.
1. RRIRVRPPRLPRPRPRPTHYPRP
2. RRIRCRPPRLPRPRPRPNQQPRP
3. RRIRTRPPRLPRPRPRPTGLPRP
4. RRIRSRPPRLPRPRPRPLMAPRP
5. RRIRARPPRLPRPRPRPMFNPRP
6. RRIRFRPPRLPRPRPRPNGKPRP
7. RRIRSRPPRLPRPRPRPPGEPRP
8. RRIRFRPPRLPRPRPRPFDMPRP

### Response
1: -0.0832; 2: 0.00277; 3: -0.0841; 4: 0.000235; 5: -0.132; 6: 0.0809; 7: 0.756; 8: -0.294

Give me shrunken log2 fold change for each of these sequences, listed below.
1. RRIRMRPPRLPRPRPRPLCTPRP
2. RRIRVRPPRLPRPRPRPYVMPRP
3. RRIRDRPPRLPRPRPRPCKSPRP
4. RRIRKRPPRLPRPRPRPKFMPRP
5. RRIRCRPPRLPRPRPRPACWPRP
6. RRIRERPPRLPRPRPRPNGWPRP
7. RRIRYRPPRLPRPRPRPYQAPRP

### Response
[1.19, -0.619, -0.321, -0.0124, 0.219, -0.00266, -0.0933]

Give me shrunken log2 fold change for each of these sequences, listed below.
1. RRIRPRPPRLPRPRPRPKTAPRP
2. RRIRNRPPRLPRPRPRPAIHPRP
3. RRIRMRPPRLPRPRPRPDSRPRP
4. RRIRWRPPRLPRPRPRPMGEPRP

### Response
[-0.109, 0.0529, -0.00783, 0.0775]

Give me shrunken log2 fold change for each of these sequences, listed below.
1. RRIRVRPPRLPRPRPRPYYDPRP
2. RRIRFRPPRLPRPRPRPNQTPRP
3. RRIRDRPPRLPRPRPRPNMLPRP
4. RRIRLRPPRLPRPRPRPPCFPRP
5. RRIRGRPPRLPRPRPRPHKSPRP
6. RRIRRRPPRLPRPRPRPLLWPRP
7. RRIRGRPPRLPRPRPRPSKFPRP
8. RRIRDRPPRLPRPRPRPRNNPRP

### Response
1. -0.429
2. 0.275
3. 0.0937
4. 0.242
5. 0.277
6. 0.421
7. 0.0363
8. -0.196

Give me shrunken log2 fold change for each of these sequences, listed below.
1. RRIRWRPPRLPRPRPRPVGEPRP
2. RRIRPRPPRLPRPRPRPFVSPRP
3. RRIRSRPPRLPRPRPRPGAAPRP
4. RRIRYRPPRLPRPRPRPCDTPRP

### Response
[1.01, -0.443, 0.603, -0.0977]

Give me shrunken log2 fold change for each of these sequences, listed below.
1. RRIRCRPPRLPRPRPRPSHFPRP
2. RRIRYRPPRLPRPRPRPTSMPRP
3. RRIRMRPPRLPRPRPRPVTVPRP
4. RRIRYRPPRLPRPRPRPIPSPRP
5. RRIRYRPPRLPRPRPRPTMEPRP
6. RRIRMRPPRLPRPRPRPLMGPRP
7. RRIRNRPPRLPRPRPRPNMNPRP

### Response
[-0.345, -1, 0.0436, -0.0334, 0.0667, -0.0985, -0.265]

Give me shrunken log2 fold change for each of these sequences, listed below.
1. RRIRHRPPRLPRPRPRPKGHPRP
2. RRIRPRPPRLPRPRPRPLFQPRP
3. RRIRSRPPRLPRPRPRPEESPRP
4. RRIRSRPPRLPRPRPRPHELPRP
5. RRIRDRPPRLPRPRPRPVSQPRP

### Response
1: -0.311; 2: -0.0669; 3: -0.048; 4: -0.101; 5: -0.0185

Give me shrunken log2 fold change for each of these sequences, listed below.
1. RRIRHRPPRLPRPRPRPPANPRP
2. RRIRLRPPRLPRPRPRPRFAPRP

### Response
[0.478, 0.374]
